// data source = patent US8106055B2

Each record here notes measured 5-HT (inhibition of reuptake of serotonin, % inhibition).
- Target Desc: serotonin (5-HT) reuptake (Rattus norvegicus, UniProt P31652)
- Construct: synaptosomes are freshly isolated from areas of the rat brain; from tissue; host or cells: rat brain synaptosomes (P2 fraction)
- Sequence (P31652 whole entry): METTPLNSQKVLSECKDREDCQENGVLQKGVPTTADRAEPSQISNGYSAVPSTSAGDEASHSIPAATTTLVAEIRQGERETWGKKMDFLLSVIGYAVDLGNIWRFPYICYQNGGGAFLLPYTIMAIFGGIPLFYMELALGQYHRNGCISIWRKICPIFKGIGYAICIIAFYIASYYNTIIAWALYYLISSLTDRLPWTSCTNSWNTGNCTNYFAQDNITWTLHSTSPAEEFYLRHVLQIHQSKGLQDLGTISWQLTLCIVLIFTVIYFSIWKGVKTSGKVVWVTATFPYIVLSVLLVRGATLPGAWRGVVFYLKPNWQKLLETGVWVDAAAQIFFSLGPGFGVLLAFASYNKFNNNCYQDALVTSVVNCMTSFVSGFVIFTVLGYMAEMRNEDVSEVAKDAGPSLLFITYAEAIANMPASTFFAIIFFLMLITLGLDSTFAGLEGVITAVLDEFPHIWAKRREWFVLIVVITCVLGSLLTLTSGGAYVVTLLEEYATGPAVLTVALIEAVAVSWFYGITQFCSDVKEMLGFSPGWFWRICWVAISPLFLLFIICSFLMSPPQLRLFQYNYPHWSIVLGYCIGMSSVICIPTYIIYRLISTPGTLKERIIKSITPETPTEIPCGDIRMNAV
- Method Summary: Inhibition of serotonin (5HT) reuptake in synaptosomes from rat brain
- Type: biochemical
- Experimental Setup: test concentration of 10 μM
Number in %, nothing else.

Consider the worked cases shown below.
1. CN(C)C(c1ccc(Cl)cc1)C1CCC(CCNC(=O)COCCN(C)S(=O)(=O)c2c(Cl)cc(Cl)cc2Cl)CC1 (stereo not shown) [Example 442]
91
2. Cc1ccc(S(=O)(=O)N2CCC(OCC(=O)NCCC3CCC(C(c4ccc(F)cc4)N(C)C)CC3)C2)cc1 (stereo not shown) [Example 491]
90
3. CN(C)C(c1cccc(F)c1)C1CCC(CNC(=O)COC2CCN(S(=O)(=O)c3ccc(F)cc3)C2)CC1 (stereo not shown) [Example 275]
80

[in] # lookup: 5-HT (inhibition of reuptake of serotonin, % inhibition) of COc1cc(C)c(S(=O)(=O)N2CCCC(OCC(=O)NCC3CCC(C(c4ccc(F)cc4)N(C)C)CC3)C2)c(C)c1C (stereo not shown) [Example 418]
[out] 98

[in] Also COc1ccc(S(=O)(=O)N(C)CCOCC(=O)NCC2CCC(C(c3ccccc3)N(C)C)CC2)cc1 (stereo not shown) [Example 242] , if possible.
[out] 77

[in] Also COc1cc(C)c(S(=O)(=O)N2CCC(CCOCC(=O)NCC3CCC(C(CCc4ccccc4)N(C)C)CC3)CC2)c(C)c1C (stereo not shown) [Example 521] , if possible.
[out] 89

[in] Also CN(C)C(c1ccc(F)cc1)C1CCC(CNC(=O)COC2CCN(S(=O)(=O)c3cccc(C(F)(F)F)c3)C2)CC1 (stereo not shown) [Example 402] , if possible.
[out] 77

[in] Also COc1cc(C)c(S(=O)(=O)N(CCOCC(=O)NCC2CCC(C(c3cccc(F)c3)N(C)C)CC2)Cc2ccccc2)c(C)c1 (stereo not shown) [Example 388] , if possible.
[out] 91

[in] Also CN(C)C(CCc1ccccc1)C1CCC(CNC(=O)COC2CCN(S(=O)(=O)c3ccccc3)C2)CC1 (stereo not shown) [Example 573] , if possible.
[out] 100

* * *

- Target Desc: bradykinin 1 receptor (B1R) of the rat (Rattus norvegicus, UniProt P97583)
- Construct: expressed in transfected cells; host or cells: CHO K1 cells
- Method Summary: Functional investigation on the rat bradykinin 1 receptor (B1R), Ca2+ FLIPR assay in CHO K1 rB1R cells
- Type: cell-based
- Experimental Setup: CHO-K1, B1R antagonism rat; test substance 10 μM; Ca2+ FLIPR, CHO K1 rB1R cells; read-out: B1R Ant. r [10 μM] % Inhibition
Each record here notes measured inhibition at 10 µM.
Number in %, nothing else.

1) COc1cc(C)c(S(=O)(=O)N2CCC(CCOCC(=O)NC3CCC(C(c4cccc(F)c4)N(C)C)CC3)CC2)c(C)c1C (stereo not shown)
-4
2) O=C(COCC1CCCN(S(=O)(=O)c2c(Cl)cc(Cl)cc2Cl)C1)NC1CCC(C(CCc2ccccc2)N2CCCCC2)CC1 (stereo not shown)
34
3) COc1cc(C)c(S(=O)(=O)N2CCCCC2COCC(=O)NC2CCC(C(CCc3ccccc3)N3CCCCC3)CC2)c(C)c1 (stereo not shown)
104

[in] Quick check: inhibition at 10 µM on bradykinin 1 receptor (B1R) of the rat (Rattus norvegicus, UniProt P97583), item CN(CCOCC(=O)NC1CCC(C(CCc2ccccc2)N2CCOCC2)CC1)S(=O)(=O)c1ccc(Cl)cc1Cl (stereo not shown) ?
[out] 12

[in] Also COc1cc(C)c(S(=O)(=O)N2CCCC(COCC(=O)NCC3CCC(C(CCc4ccccc4)N4CCCC4)CC3)C2)c(C)c1 (stereo not shown) , if possible.
[out] 100

[in] Also COc1ccc(S(=O)(=O)N2CCCCC2COCC(=O)NCC2CCC(C(c3cccc(F)c3)N(C)C)CC2)c(OC)c1 (stereo not shown) , if possible.
[out] 23

[in] Also Cc1cc(C)c(S(=O)(=O)N2CCC(OCC(=O)NCC3CCC(C(c4cccs4)N(C)C)CC3)C2)c(C)c1 (stereo not shown) , if possible.
[out] 60

* * *

- Target Desc: bradykinin 1 receptor (B1R) of the rat (Rattus norvegicus, UniProt P97583)
- Construct: expressed in transfected cells; host or cells: CHO K1 cells
- Method Summary: Functional investigation on the rat bradykinin 1 receptor (B1R), Ca2+ FLIPR assay in CHO K1 rB1R cells
- Format: cell-based
- Experimental Setup: CHO-K1, B1R antagonism rat; test substance 10 μM; Ca2+ FLIPR, CHO K1 rB1R cells; read-out: B1R Ant. r [10 μM] % Inhibition
- Excerpt: Functional Investigation on the Human Bradykinin 1 Receptor (B1R) The agonistic or antagonistic action of substances can be determined on the bradykinin 1 receptor (B1R) of the human species and rats with the following assay. In accordance with this assay, the Ca^2+ inflow through the channel is quantified with the aid of a Ca^2=-sensitive dyestuff (type Fluo-4, Molecular Probes Europe BV, Leiden, Holland) in a fluorescent imaging plate reader (FLIPR, Molecular Devices, Sunnyvale, USA). […]
Endpoint Name: inhibition at 10 µM (%)
Number in %, nothing else.

1) CN(C)C(c1cccs1)C1CCC(CCNC(=O)COC2CCN(S(=O)(=O)c3cccc(C(F)(F)F)c3)C2)CC1 (stereo not shown)
26

[in] Quick check: inhibition at 10 µM on bradykinin 1 receptor (B1R) of the rat (Rattus norvegicus, UniProt P97583), item COc1cc(C)c(S(=O)(=O)N2CCCC(COCC(=O)NCC3CCC(C(c4ccccc4)N4CCOCC4)CC3)C2)c(C)c1 (stereo not shown) ?
[out] 40

[in] Also Cc1cc(Cl)cc(Cl)c1-c1noc(C(=O)NCC(=O)NC2CCC(C(c3ccccc3)N(C)C)CC2)n1 (stereo not shown) , if possible.
[out] 25

[in] Also CN(C)C(c1cccc(F)c1)C1CCC(NC(=O)COC2CCN(S(=O)(=O)c3cccc(C(F)(F)F)c3)C2)CC1 (stereo not shown) , if possible.
[out] 21

* * *

Each record here notes measured B1R Ant. r [10 μM] % Inhibition.
- Target Desc: bradykinin 1 receptor (B1R) of the rat (Rattus norvegicus, UniProt P97583)
- Construct: expressed in transfected cells; host or cells: CHO K1 cells
- Sequence (P97583 1-337): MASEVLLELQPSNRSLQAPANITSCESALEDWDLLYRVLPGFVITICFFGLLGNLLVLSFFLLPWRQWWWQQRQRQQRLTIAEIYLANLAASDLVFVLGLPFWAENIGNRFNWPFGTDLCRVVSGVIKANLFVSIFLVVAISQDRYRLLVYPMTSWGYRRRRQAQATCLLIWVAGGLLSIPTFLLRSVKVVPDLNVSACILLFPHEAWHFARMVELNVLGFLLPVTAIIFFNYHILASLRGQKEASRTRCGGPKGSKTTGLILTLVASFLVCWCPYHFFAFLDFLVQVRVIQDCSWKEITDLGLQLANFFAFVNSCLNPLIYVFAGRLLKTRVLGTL
- Method Summary: Functional investigation on the rat bradykinin 1 receptor (B1R), Ca2+ FLIPR assay in CHO K1 rB1R cells
- Assay type: cell-based
- Experimental Setup: B1R antagonism rat; test substance 10 μM; Ca2+ FLIPR, CHO K1 rB1R cells
Don't forget the unit after the value.

[in] # lookup: B1R Ant. r [10 μM] % Inhibition of COc1cc(C)c(S(=O)(=O)N(CCOCC(=O)NCCC2CCC(C(c3cccc(F)c3)N(C)C)CC2)Cc2ccccc2)c(C)c1 (stereo not shown)
[out] 27%

[in] Also COc1cc(C)c(S(=O)(=O)N2CCC(CCOCC(=O)NCCC3CCC(C(c4cccc(F)c4)N(C)C)CC3)CC2)c(C)c1C (stereo not shown) , if possible.
[out] −11%

[in] Also CN(C)C(c1ccc(F)cc1)C1CCC(CNC(=O)COCCN(C)S(=O)(=O)c2cccc(C(F)(F)F)c2)CC1 (stereo not shown) , if possible.
[out] 16%

[in] Also Cc1ccc(S(=O)(=O)N(C)CCOCC(=O)NCC2CCC(C(c3ccc(F)cc3)N(C)C)CC2)cc1 (stereo not shown) , if possible.
[out] 3%

* * *

Each record here notes measured B1R Ant. r [10 μM] % Inhibition.
- Target Desc: bradykinin 1 receptor (B1R) of the rat (Rattus norvegicus)
- Construct: expressed in transfected cells; host or cells: CHO K1 cells
- Method Summary: Functional investigation on the rat bradykinin 1 receptor (B1R), Ca2+ FLIPR assay in CHO K1 rB1R cells
- Assay type: cell-based
- Experimental Setup: B1R antagonism rat; test substance 10 μM; Ca2+ FLIPR, CHO K1 rB1R cells

[in] # lookup: B1R Ant. r [10 μM] % Inhibition of CN(C)C(c1ccc(Cl)cc1)C1CCC(CCNC(=O)COC2CCCN(S(=O)(=O)c3ccccc3)C2)CC1 (stereo not shown)
[out] 15%
